Cited source: the supplement of paper PMC11061612

# System: RT-112 (Bladder Carcinoma)
# Experimental Details: combination Emax (second highest fraction inhibited in the dose matrix, 72 h); higher = more inhibition; extreme values may be limits of the assay
Some compounds, each annotated with its measured combination Emax.
Lab note: jot the number down without any unit.

Some compounds with recorded combination Emax:
| Compound | Test Readout | Reported Measurement |
| --- | --- | --- |
| Cn1cnc2c(F)c(Nc3ccc(Br)cc3Cl)c(C(=O)NOCCO)cc21 [Selumetinib] + CC(C)n1c(=O)n(C)c2cnc3cc(F)c(-c4ccc(OCCCN5CCCCC5)nc4)cc3c21 [AZD1390] (first compound max 10 µM, 7x7, partner max 0.3 µM) | combination Emax | 0.353 |
| CN(CCO)CC[C@H](CSc1ccccc1)Nc1ccc(S(=O)(=O)NC(=O)c2ccc(N3CCC([C@@H](O)c4ccccc4-c4ccc(Cl)cc4)CC3)cc2)cc1S(=O)(=O)C(F)(F)F [AZD4320] + CC(=O)O[C@H]1C(=O)[C@@]2(C)[C@H]([C@H](OC(=O)c3ccccc3)[C@]3(O)C[C@H](OC(=O)[C@H](O)[C@@H](NC(=O)c4ccccc4)c4ccccc4)C(C)=C1C3(C)C)[C@]1(OC(C)=O)CO[C@@H]1C[C@@H]2O [Paclitaxel] (first compound max 1 µM, 7x7, partner max 3 µM) | combination Emax | 0.991 |

Let us examine a further case.
Which measured combination Emax value corresponds to CC1(C)CCC(CN2CCN(c3ccc(C(=O)NS(=O)(=O)c4ccc(NCC5CCOCC5)c([N+](=O)[O-])c4)c(Oc4cnc5[nH]ccc5c4)c3)CC2)=C(c2ccc(Cl)cc2)C1 [Venetoclax] + C[C@@H](Nc1cc(F)cc(F)c1)c1cc(C(=O)N(C)C)cc2c(=O)cc(N3CCOCC3)oc12 [AZD8186] (first compound max 1 µM, 7x7, partner max 3 µM) ?
0.472

====

Each entry below carries its recorded combination Emax.
# Tested on: SU-DHL-6 (B-Cell Non-Hodgkin's Lymphoma)
# Experimental Details: combination Emax (second highest fraction inhibited in the dose matrix, 72 h); higher = more inhibition; extreme values may be limits of the assay
Output spec: single numeric token, no unit.

| Molecule | Reported Measurement |
| --- | --- |
| CN(C)CCCOc1ccc(-c2ccc3ncc4c(c3c2)n(C2CCOCC2)c(=O)n4C)cn1 [AZD0156] + C[C@@H]1COCCN1C2=NC(=NC(=C2)C3(CC3)[S@](=N)(=O)C)C4=C5C=CNC5=NC=C4 [AZD6738] (first compound max 1 µM, 7x7, partner max 10 µM) | 0.629 |
| Cc1nc(-c2cn3c(n2)-c2ccc(-c4cnn(C(C)(C)C(N)=O)c4)cc2OCC3)n(C(C)C)n1 [Taselisib] + O=C(Nc1ccc2[nH]nc(-c3ccncc3)c2c1)[C@@H]1CCN(CC(=O)N2CCN(c3ccc(-c4ncccn4)cc3)CC2)C1 [SCH772984] (first compound max 10 µM, 7x7, partner max 5 µM) | 1 |

Now for another entry.
Look up combination Emax for this molecule: Cc1c2c(nn1C)CSCc1cc(n(C)n1)CSc1cc(c3ccccc3c1)OCCCc1c(C(=O)O)n(C)c3c-2c(Cl)ccc13 [AZD5991] + C[C@@H]1COCCN1C2=NC(=NC(=C2)C3(CC3)[S@](=N)(=O)C)C4=C5C=CNC5=NC=C4 [AZD6738] (first compound max 1 µM, 7x7, partner max 10 µM)
1
